The reported measurements were obtained from ChEMBL document CHEMBL5291721.

Attribute: AC50
- target: Prostaglandin G/H synthase 1 (Rattus norvegicus, UniProt Q63921); also: assay procedure not described here
- Sequence (Q63921 whole entry): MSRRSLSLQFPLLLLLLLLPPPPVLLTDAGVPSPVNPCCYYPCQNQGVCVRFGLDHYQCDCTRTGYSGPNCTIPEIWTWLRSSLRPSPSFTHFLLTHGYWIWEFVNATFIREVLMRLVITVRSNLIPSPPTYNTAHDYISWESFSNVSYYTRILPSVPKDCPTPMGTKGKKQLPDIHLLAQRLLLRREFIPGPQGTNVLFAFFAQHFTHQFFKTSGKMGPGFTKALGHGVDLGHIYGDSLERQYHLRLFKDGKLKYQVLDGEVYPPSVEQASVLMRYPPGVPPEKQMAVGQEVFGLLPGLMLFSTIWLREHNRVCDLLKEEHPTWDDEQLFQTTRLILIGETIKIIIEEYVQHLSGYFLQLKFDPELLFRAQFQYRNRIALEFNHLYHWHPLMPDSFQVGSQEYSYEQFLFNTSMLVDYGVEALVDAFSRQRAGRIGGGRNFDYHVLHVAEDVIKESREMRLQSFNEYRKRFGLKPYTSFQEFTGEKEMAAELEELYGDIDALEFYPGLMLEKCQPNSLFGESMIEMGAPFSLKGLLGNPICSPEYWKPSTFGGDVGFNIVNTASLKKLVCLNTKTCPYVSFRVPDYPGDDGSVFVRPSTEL
- Type: functional
Where a SMILES comes first, the peptide text is derived from it. [ ]: non-standard residue; d: D form. pGlu = O=C1CC[C@@H](C(=O)O)N1; Thz = O=C(O)[C@@H]1CSCN1

Known results for molecules:
| molecule | AC50 |
| --- | --- |
| CCC1(CCC(C)C)C(=O)NC(=O)NC1=O | > 10 µM |
| CCC(NC(C)C)C(O)c1ccc(O)c2[nH]c(=O)ccc12 (stereo not drawn) | > 30 µM |
| Oc1cc(O)c(Cl)cn1 | > 30 µM |
| CC=CC1=C(C(=O)O)N2C(=O)[C@@H](NC(=O)[C@H](N)c3ccc(O)cc3)[C@H]2SC1 | 13.7 µM |

Entry `OC[C@H]1O[C@@H](Oc2cc(O)cc(/C=C/c3ccc(O)cc3)c2)[C@H](O)[C@@H](O)[C@@H]1O` needs its AC50 filled in; supply it.
4.4 µM

Specify measured AC50 for Cn1c(=O)c2c(ncn2CCOC(=O)C(C)(C)Oc2ccc(Cl)cc2)n(C)c1=O [THEOFIBRATE] .
> 30 µM

Supply measured AC50 of O=C1CC[C@@H](C(=O)N2CSC[C@H]2C(=O)O)N1 [PIDOTIMOD] ([pGlu]-[Thz]-OH) in your reply.
> 30 µM

Output measured AC50 for this item: `Clc1ccc(Cn2c(CN3CCCC3)nc3ccccc32)cc1`
> 30 µM

----------
- target: Gamma-aminobutyric acid receptor subunit alpha-1/alpha-2/beta-2/gamma-2 (Homo sapiens, UniProt P14867+P18507+P47869+P47870); also: assay procedure not described here
- Sequence (P14867 whole entry): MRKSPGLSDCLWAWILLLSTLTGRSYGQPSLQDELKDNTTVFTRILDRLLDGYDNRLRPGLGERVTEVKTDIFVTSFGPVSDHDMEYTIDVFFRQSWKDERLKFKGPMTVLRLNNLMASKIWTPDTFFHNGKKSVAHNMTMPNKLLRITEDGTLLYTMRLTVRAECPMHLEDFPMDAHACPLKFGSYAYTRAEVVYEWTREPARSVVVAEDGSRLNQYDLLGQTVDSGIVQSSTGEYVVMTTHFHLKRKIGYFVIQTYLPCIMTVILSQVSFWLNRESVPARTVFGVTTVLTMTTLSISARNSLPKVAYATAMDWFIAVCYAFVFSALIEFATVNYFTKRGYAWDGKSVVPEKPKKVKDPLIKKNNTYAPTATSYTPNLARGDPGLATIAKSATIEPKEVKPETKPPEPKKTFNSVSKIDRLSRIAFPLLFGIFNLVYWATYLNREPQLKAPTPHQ
- Sequence (P47870 whole entry): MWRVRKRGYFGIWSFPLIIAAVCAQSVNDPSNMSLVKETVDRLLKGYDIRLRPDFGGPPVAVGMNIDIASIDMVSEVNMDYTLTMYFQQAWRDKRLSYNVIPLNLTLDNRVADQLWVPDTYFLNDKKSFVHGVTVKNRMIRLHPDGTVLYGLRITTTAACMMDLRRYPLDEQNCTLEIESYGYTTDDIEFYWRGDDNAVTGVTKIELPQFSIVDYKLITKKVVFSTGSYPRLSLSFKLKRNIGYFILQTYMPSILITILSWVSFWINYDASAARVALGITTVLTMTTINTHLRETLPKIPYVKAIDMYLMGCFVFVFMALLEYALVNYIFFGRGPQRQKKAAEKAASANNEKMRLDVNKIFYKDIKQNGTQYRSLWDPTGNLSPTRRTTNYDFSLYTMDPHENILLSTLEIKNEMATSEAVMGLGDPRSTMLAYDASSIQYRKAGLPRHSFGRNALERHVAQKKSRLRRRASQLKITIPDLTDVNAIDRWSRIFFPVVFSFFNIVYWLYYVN
- Sequence (P18507 whole entry): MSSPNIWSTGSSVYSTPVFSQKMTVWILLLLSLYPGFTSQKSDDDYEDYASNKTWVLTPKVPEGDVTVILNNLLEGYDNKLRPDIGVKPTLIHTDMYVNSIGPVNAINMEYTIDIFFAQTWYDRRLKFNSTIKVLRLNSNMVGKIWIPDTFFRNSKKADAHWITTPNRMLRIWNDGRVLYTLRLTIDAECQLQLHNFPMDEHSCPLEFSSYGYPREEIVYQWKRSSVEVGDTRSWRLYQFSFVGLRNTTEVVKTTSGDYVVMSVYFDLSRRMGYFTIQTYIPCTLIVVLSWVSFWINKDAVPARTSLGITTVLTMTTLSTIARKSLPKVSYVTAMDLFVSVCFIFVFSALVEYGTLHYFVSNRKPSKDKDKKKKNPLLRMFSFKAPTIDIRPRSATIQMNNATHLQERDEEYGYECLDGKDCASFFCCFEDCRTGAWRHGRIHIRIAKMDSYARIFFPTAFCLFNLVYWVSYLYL
- Sequence (P47869 whole entry): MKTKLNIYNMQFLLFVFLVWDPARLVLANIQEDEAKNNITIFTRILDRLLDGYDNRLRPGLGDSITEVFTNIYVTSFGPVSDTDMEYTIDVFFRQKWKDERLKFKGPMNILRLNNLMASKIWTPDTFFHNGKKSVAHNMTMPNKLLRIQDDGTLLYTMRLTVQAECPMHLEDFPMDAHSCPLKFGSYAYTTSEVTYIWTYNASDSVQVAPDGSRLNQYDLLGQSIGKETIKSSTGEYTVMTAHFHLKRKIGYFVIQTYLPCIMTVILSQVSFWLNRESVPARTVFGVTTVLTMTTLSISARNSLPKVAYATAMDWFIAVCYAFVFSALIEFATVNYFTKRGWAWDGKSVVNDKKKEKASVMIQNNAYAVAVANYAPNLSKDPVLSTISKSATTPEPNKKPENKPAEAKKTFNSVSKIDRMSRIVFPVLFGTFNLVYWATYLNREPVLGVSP
- Assay type: functional, cell-based
// values below are reported AC50

Here's what some known entries look like.
| molecule | meas-value |
| --- | --- |
| OC[C@H]1O[C@@H](n2cnc3c2NC=NC[C@H]3O)C[C@@H]1O [PENTOSTATIN] | > 30 µM |
| CN(C)C/C=C/C(=O)Nc1cc2c(Nc3ccc(F)c(Cl)c3)ncnc2cc1O[C@H]1CCOC1 [AFATINIB] | > 30 µM |
| CC(C)Cc1ccc([C@H](C)C(=O)O)cc1 [DEXIBUPROFEN] | > 30 µM |

Specify measured AC50 for `CCOc1nc2cccc(C(=O)O)c2n1Cc1ccc(-c2ccccc2-c2nnn[nH]2)cc1` .
> 30 µM

Report measured AC50; entry is CO/N=C(\C(=O)N[C@@H]1C(=O)N2C(C(=O)O)=C(CSc3nc(=O)c(=O)[nH]n3C)CS[C@H]12)c1csc(N)n1 [CEFTRIAXONE]
> 30 µM

Consider the molecule CO[C@H]1C[C@H](O[C@H]2CC[C@@]3(C)[C@H](CC[C@@H]4[C@@H]3CC[C@]3(C)[C@@H](C5=CC(=O)OC5)[C@@H](OC(C)=O)C[C@]43O)C2)O[C@@H](C)[C@@H]1O [OLEANDRIN] . State its measured AC50.
> 30 µM

Quote AC50 reported for Clc1ccc(Cn2c(CN3CCCC3)nc3ccccc32)cc1 [CLEMIZOLE] please.
> 30 µM

----------
Listed here: items and their measured AC50.
- target: Voltage-gated inwardly rectifying potassium channel KCNH2 (Homo sapiens, UniProt Q12809); also: assay procedure not described here
- Sequence (Q12809 whole entry): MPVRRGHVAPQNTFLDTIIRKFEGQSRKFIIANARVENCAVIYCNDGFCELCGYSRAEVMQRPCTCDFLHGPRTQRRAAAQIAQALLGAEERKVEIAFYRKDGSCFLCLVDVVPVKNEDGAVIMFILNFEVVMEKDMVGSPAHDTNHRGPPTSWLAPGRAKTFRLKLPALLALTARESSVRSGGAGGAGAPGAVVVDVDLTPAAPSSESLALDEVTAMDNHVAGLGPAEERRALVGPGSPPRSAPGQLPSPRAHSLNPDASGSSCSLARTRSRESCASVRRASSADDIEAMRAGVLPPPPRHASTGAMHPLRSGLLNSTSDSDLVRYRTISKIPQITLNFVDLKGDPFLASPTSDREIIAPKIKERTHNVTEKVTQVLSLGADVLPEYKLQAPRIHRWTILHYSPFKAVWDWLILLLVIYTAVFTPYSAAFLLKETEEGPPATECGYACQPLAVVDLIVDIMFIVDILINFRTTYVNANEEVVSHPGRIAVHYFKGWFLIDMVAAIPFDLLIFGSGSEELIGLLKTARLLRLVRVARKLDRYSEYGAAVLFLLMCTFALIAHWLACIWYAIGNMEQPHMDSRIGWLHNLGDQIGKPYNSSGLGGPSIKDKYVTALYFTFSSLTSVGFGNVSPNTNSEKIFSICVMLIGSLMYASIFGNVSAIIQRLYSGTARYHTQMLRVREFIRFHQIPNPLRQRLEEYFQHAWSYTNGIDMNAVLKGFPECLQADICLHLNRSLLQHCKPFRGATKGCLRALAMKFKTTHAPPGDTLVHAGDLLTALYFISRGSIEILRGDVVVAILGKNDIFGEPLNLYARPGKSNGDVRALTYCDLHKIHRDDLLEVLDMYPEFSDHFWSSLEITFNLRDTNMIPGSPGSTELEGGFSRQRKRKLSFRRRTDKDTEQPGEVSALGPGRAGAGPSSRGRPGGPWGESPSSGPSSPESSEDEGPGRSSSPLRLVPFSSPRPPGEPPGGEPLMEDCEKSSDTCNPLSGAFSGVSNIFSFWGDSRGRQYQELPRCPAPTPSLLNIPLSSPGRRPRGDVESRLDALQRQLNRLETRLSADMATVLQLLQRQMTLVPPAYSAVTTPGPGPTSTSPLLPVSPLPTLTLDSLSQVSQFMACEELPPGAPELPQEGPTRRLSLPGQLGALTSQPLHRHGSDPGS
- Assay type: functional

Solved entries:
| molecule | property-measured | meas-value |
| --- | --- | --- |
| CN(CCOc1ccc(CC2SC(=O)NC2=O)cc1)c1ccccn1 (centres undefined) | AC50 | 13 µM |
| C=C1c2cccc(O)c2C(=O)C2=C(O)[C@]3(O)C(=O)C(C(N)=O)=C(O)[C@@H](N(C)C)[C@@H]3[C@@H](O)[C@H]12 | AC50 | > 30 µM |
| Cc1cc(=O)n(-c2ccccc2)n1C [ANTIPYRINE] | AC50 | > 30 µM |

Continue with the next molecule.
Consider the molecule CC(=O)O[C@]1(C(C)=O)CC[C@H]2[C@@H]3C=C(Cl)C4=CC(=O)[C@@H]5C[C@@H]5[C@]4(C)[C@H]3CC[C@@]21C [CYPROTERONE ACETATE] tested on Voltage-gated inwardly rectifying potassium channel KCNH2 (Homo sapiens, UniProt Q12809); state its AC50. Also: assay procedure not described here.
> 30 µM
